Every entry's value here was drawn from patent US20260116991A1.

target: biotinylated labeled human GPC3 protein (produced in-house) (human, UniProt P51654 25-559, limits assumed, biotinylated (Dojindo, Cat. No. LK03); sites not stated); assay: ELISA, biotinylated human GPC3 protein
# OD450 at 0.53 nM annotations
Write the number in OD450 without appending the unit.

{"BINDER": "hAb003LH1L1b (antibody, human IgG1, V domains shown, Humanized F2.154.1; VH H1 + VL L1b; expressed as human IgG1) VH: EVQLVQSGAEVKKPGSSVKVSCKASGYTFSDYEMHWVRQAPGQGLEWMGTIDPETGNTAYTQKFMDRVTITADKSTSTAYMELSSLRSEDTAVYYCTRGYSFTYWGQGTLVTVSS VL: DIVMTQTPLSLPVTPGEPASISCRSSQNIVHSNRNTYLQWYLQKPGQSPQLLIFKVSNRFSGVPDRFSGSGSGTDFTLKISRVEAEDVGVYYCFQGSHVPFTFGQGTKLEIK", "OD450 at 0.53 nM (OD450)": 2.35}
{"BINDER": "hAb007LH2L1b (antibody, human IgG1, V domains shown, Humanized F3.81.19; VH H2 + VL L1b; expressed as human IgG1) VH: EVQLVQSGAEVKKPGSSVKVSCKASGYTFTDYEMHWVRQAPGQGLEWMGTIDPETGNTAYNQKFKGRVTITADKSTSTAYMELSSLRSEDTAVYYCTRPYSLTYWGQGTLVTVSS VL: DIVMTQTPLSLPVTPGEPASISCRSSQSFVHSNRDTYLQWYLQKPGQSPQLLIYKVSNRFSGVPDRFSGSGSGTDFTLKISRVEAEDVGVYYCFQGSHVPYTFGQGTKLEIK", "OD450 at 0.53 nM (OD450)": 1.84}
{"BINDER": "hAb005LH1L1 (antibody, human IgG1, V domains shown, Humanized F3.54.12; VH H1 + VL L1; expressed as human IgG1) VH: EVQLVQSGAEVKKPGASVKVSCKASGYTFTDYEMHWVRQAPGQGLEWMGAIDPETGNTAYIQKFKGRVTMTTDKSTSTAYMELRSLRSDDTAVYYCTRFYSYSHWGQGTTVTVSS VL: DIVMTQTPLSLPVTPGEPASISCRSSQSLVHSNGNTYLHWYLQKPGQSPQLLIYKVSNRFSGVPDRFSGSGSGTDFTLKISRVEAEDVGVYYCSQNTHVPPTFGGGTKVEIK", "OD450 at 0.53 nM (OD450)": 1.1}

Any idea what OD450 at 0.53 nM was measured for hAb006LH3L1a (antibody, human IgG1, V domains shown, Humanized F3.38.7; VH H3 + VL L1a; expressed as human IgG1) VH: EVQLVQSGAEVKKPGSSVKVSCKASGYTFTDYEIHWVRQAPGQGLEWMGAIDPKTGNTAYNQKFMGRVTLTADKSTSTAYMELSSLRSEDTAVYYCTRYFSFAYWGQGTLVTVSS VL: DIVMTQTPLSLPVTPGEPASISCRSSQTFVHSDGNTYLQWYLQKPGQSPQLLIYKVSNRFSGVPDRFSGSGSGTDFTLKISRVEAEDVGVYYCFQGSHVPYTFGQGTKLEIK ? 0.909

Query: OD450 at 0.53 nM; subject: hAb007LH3L1 (antibody, human IgG1, V domains shown, Humanized F3.81.19; VH H3 + VL L1; expressed as human IgG1) VH: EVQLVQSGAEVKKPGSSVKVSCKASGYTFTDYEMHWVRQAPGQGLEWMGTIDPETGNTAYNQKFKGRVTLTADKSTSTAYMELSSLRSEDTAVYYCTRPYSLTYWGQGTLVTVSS VL: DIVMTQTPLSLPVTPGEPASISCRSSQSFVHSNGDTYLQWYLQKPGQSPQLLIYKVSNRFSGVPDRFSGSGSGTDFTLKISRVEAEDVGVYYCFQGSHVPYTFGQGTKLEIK 1.78
